These measurements were taken from ChEMBL document CHEMBL3991601.

- TESTED_ON: Serine/threonine-protein kinase ULK3 (Homo sapiens)
- Sequence (Q6PHR2 whole entry): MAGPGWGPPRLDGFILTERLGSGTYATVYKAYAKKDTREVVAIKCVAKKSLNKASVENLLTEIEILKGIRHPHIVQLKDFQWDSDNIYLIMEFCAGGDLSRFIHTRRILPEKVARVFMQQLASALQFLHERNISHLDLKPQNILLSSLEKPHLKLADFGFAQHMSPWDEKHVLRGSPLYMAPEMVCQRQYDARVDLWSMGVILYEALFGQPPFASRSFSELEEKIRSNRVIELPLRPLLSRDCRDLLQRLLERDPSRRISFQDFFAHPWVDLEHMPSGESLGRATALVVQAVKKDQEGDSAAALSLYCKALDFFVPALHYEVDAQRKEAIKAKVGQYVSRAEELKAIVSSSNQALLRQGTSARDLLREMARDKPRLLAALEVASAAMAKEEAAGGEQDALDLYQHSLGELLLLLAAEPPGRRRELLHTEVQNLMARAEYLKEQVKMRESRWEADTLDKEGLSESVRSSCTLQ
Counter-ions that a name gives are not always drawn. The source made the active and inactive calls.
Classes to choose from: active, inactive

Examples from the recorded data:
Prompt: Any idea what this test logged for "Cc1nc2cc(-c3nn(C(C)C)c4ncnc(N)c34)ccc2o1" ?
Response: inactive

Prompt: Next up: CCn1c(C(=O)N(C2CC2)C2CC2)cc2c3c(ncn3C)c(Nc3cc(C)n(C)n3)nc21 [BMS-911543]
Response: inactive

Prompt: Next up: COc1c(OCCCN2CCOCC2)ccc2c1N=C(NC(=O)c1cnc(N)nc1)N1CCN=C21 [COPANLISIB]
Response: inactive

Prompt: Next up: COc1cc2c(Nc3ccc(Cl)c(Cl)c3F)ncnc2cc1OC[C@@H]1C[C@@H]2CN(C)C[C@@H]2C1 [TESEVATINIB]
Response: inactive

Prompt: Next up: NC(=O)Nc1cc(-c2cccc(F)c2)sc1C(=O)N[C@H]1CCCNC1 [AZD-7762]
Response: active

Next:
Prompt: Any idea what this test logged for CO[C@H]1C[C@@H]2CC[C@@H](C)[C@@](O)(O2)C(=O)C(=O)N2CCCC[C@H]2C(=O)O[C@H]([C@H](C)C[C@@H]2CC[C@@H](OC(=O)C(C)(CO)CO)[C@H](OC)C2)CC(=O)[C@H](C)/C=C(\C)[C@@H](O)[C@@H](OC)C(=O)[C@H](C)C[C@H](C)/C=C/C=C/C=C/1C [TEMSIROLIMUS] ?
Response: inactive

Prompt: Next up: CNC(=O)c1cc(Oc2ccc(NC(=O)Nc3cc(C(C)(C)C)nn3-c3ccc4ncccc4c3)c(F)c2)ccn1 [REBASTINIB]
Response: inactive

Prompt: Next up: Cn1cnc2c(F)c(Nc3ccc(Br)cc3F)c(C(=O)NOCCO)cc21 [BINIMETINIB]
Response: inactive

Prompt: Next up: O=C(Cc1ccc(-c2ccc(OCCN3CCOCC3)cc2)cn1)NCc1ccccc1 [TIRBANIBULIN]
Response: inactive

Prompt: Next up: CO[C@H]1C[C@@H]2CC[C@@H](C)[C@@](O)(O2)C(=O)C(=O)N2CCCC[C@H]2C(=O)O[C@H]([C@H](C)C[C@@H]2CC[C@@H](O)[C@H](OC)C2)CC(=O)[C@H](C)/C=C(\C)[C@@H](O)[C@@H](OC)C(=O)[C@H](C)C[C@H](C)/C=C/C=C/C=C/1C [SIROLIMUS]
Response: inactive

Prompt: Next up: COc1ncc(-c2ccc3nccc(-c4ccnnc4)c3c2)cc1NS(=O)(=O)c1ccc(F)cc1F [OMIPALISIB]
Response: inactive

Prompt: Next up: "COCc1c(-c2ccc(NC(=O)Nc3cc(C(F)(F)F)ccc3F)c(F)c2)c2c(N)ncnn2c1CN1CCOCC1"
Response: inactive

Prompt: Next up: CCS(=O)(=O)N1CCN(c2ccc(Nc3ncc(C(N)=O)c(NC4CC4)n3)cc2)CC1 [Cerdulatinib Hydrochloride]
Response: active

Prompt: Next up: CN1C/C=C/CCOc2cccc(c2)-c2ccnc(n2)Nc2cccc(c2)C1 [ZOTIRACICLIB]
Response: inactive

Prompt: Next up: Cn1cc(-c2cnc3ccc4ccc(CS(=O)(=O)NCc5ccccn5)cc4c(=O)c3c2)cn1 [MK-8033]
Response: inactive

Prompt: Next up: CCOc1cc2ncc(C#N)c(Nc3ccc(F)c(Cl)c3)c2cc1NC(=O)/C=C/CN(C)C [PELITINIB]
Response: inactive

Prompt: Next up: COc1cc([C@@H]2c3cc4c(cc3[C@H](O)[C@H]3COC(=O)[C@@H]23)OCO4)cc(OC)c1OC [AXL-1717]
Response: inactive
